// values below are reported Dmax
molecular target: ER in MCF-7 cells (Homo sapiens (Human)); experiment: In-cell Western (ICW) ER degradation assay in MCF-7 cells; format: cell-based; details: MCF7, MCF-7, maximal ER degradation, 16 hrs treatment; read-out: MCF7 Dmax
Sequence (P03372 whole entry): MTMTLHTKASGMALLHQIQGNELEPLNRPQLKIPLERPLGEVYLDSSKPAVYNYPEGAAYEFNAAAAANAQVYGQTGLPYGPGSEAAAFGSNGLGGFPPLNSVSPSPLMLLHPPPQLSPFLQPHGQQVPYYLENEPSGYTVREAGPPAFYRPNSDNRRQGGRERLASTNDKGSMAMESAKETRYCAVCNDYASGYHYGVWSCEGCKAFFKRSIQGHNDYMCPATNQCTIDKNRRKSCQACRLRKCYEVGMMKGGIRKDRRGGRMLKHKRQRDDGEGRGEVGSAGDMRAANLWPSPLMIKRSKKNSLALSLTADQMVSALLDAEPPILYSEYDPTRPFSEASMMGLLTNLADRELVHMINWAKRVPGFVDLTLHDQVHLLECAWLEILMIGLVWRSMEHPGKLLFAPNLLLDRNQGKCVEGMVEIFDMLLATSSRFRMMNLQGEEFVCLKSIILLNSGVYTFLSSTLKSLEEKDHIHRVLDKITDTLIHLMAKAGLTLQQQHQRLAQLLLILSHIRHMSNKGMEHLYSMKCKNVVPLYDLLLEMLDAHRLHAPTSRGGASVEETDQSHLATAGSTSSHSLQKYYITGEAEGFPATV

COMPOUND | Dmax
O=C1CC[C@H](N2Cc3c(ccc4c3OC[C@H]3CN(CC5CC6(CCN(c7ccc([C@@H]8c9ccc(O)cc9CC[C@@H]8c8ccccc8)cc7F)CC6)C5)CCN43)C2=O)C(=O)N1 (single isomer, unassigned) | 50 to 75%

Form field Dmax for item O=C1CC[C@H](N2Cc3cc4c(cc3C2=O)OC[C@@H]2CN(CC3CC5(CCN(c6ncc([C@@H]7c8ccc(O)cc8CC[C@@H]7c7ccccc7)cn6)CC5)C3)CCN42)C(=O)N1 (single isomer, unassigned) on ER in MCF-7 cells (Homo sapiens (Human)): 50 to 75%

Form field Dmax for item COc1cc(N2CCC(CN3CCN4c5ccc6c(c5OC[C@@H]4C3)CN([C@@H]3CCC(=O)NC3=O)C6=O)CC2)ccc1[C@@H]1c2ccc(O)cc2CC[C@@H]1c1ccccc1 (stereo in doubt) on ER in MCF-7 cells (Homo sapiens (Human)): 25 to 50%

Form field Dmax for item O=C1CC[C@H](N2Cc3cc4c(cc3C2=O)OC[C@@H]2CN(C[C@H]3COC5(C3)CN(c3ccc([C@@H]6c7ccc(O)cc7CC[C@@H]6c6ccccc6)cc3)C5)CCN42)C(=O)N1 on ER in MCF-7 cells (Homo sapiens (Human)): 50 to 75%

---

// values below are reported Dmax
target: ER in MCF-7 cells (Homo sapiens (Human)); test: In-cell Western (ICW) ER degradation assay in MCF-7 cells; assay type: cell-based; details: MCF7, MCF-7, maximal ER degradation, 16 hrs treatment; read-out: MCF7 Dmax

MOLECULE | STUDY_TARGET | RESULT_TYPE | RESULT
COc1c([C@@H]2c3ccc(O)cc3CC[C@@H]2c2ccccc2)ccc(N2CCC3(CC2)CC(CN2CCN4c5cc6c(cc5OC[C@@H]4C2)C(=O)N([C@H]2CCC(=O)NC2=O)C6)C3)c1F | ER in MCF-7 cells (Homo sapiens (Human)) | Dmax | > 75%

O=C1CCC(NC(=O)c2ccc3c(n2)OC[C@H]2CN(CC4CCN(c5ccc([C@H]6c7ccc(O)cc7CC[C@H]6c6ccccc6)cc5)CC4)CCN32)C(=O)N1 (stereo in doubt) has a reported Dmax of 50 to 75%

COc1cc(N2CCC(CN3CCC(c4ccc(N[C@H]5CCC(=O)NC5=O)cc4)CC3)CC2)ccc1[C@@H]1c2ccc(O)cc2CC[C@@H]1c1ccccc1 (single isomer, unassigned) has a reported Dmax of < 25%

O=C1CC[C@H](Nc2ccc(C3CCN(C[C@@H]4COC5(CCN(c6ccc([C@@H]7c8ccc(O)cc8CC[C@@H]7c7ccccc7)cc6)CC5)C4)CC3)cc2)C(=O)N1 (single isomer, unassigned) has a reported Dmax of 25 to 50%

COc1cc(N2CCC3(CC2)CC(CN2CCC(c4ccc(N[C@@H]5CCC(=O)NC5=O)cc4)CC2)C3)c(F)cc1[C@@H]1c2ccc(O)cc2CC[C@@H]1c1ccccc1 (single isomer, unassigned) has a reported Dmax of 50 to 75%

---

biological target: ER in MCF-7 cells (Homo sapiens (Human)); test: In-cell Western (ICW) ER degradation assay in MCF-7 cells; assay type: cell-based; settings: MCF-7, ER degradation, 16 hrs treatment; read-out: MCF7 DC50
RESULT_TYPE: DC50

Before answering, review these 4 worked examples.
MOLECULE | DC50
COc1cc(N2CC3(CCC(CN4CCC5(CC4)COc4cc6c(cc45)CN([C@H]4CCC(=O)NC4=O)C6=O)CC3)C2)c(F)cc1[C@H]1c2ccc(O)cc2CC[C@H]1c1ccccc1 [Compound A172] | 10 to 100 nM
O=C1CC[C@H](N2Cc3c(ccc4c3OC[C@H]3CN(CC5CCC6(CC5)CN(c5ccc([C@H]7c8ccc(O)cc8CC[C@H]7c7ccccc7)cc5F)C6)CCN43)C2=O)C(=O)N1 (single isomer, unassigned) [Compound A159] | 10 to 100 nM
O=C1CC[C@H](N2Cc3c(ccc4c3OCC43CCN(CC4CCN(c5ccc([C@@H]6c7ccc(O)cc7CC[C@@H]6c6ccccc6)cc5)CC4)CC3)C2=O)C(=O)N1 [Compound A70] | < 1 nM
COc1c([C@@H]2c3ccc(O)cc3CC[C@@H]2c2ccccc2)ccc(N2CCC3(CC2)CC(CN2CCN4c5ccc6c(c5OC[C@H]4C2)CN([C@H]2CCC(=O)NC2=O)C6=O)C3)c1F [Compound A196] | < 1 nM

Next item in the queue.
COc1cc(N2CC3(CCC(CN4CCN5c6cc7c(cc6OC[C@@H]5C4)C(=O)N([C@H]4CCC(=O)NC4=O)C7)CC3)C2)c(F)cc1[C@@H]1c2ccc(O)cc2CC[C@@H]1c1ccccc1 (single isomer, unassigned) [Compound A164] has a reported DC50 of 1 to 10 nM
